Tested on: CLL cells
Test details: Annexin-V death assay of freshly isolated primary CLL cells
Type: cell-based, human
Measurement context: Homo sapiens, CLL cell, 48 h, twenty-four CLL samples, 48 hours; read-out: range of EC50 over CLL samples
pEC50: −log10 of the molar value.
Assay metric: pEC50

Incoming: Tell me the measured pEC50 of CN(C)CC[C@H](CSc1ccccc1)Nc1ccc(S(=O)(=O)NC(=O)c2ccc(N3CCN(Cc4ccccc4-c4ccc(Cl)cc4)CC3)cc2)cc1[N+](=O)[O-] [ABT-737] , please.
Outgoing: 8.03 to 8.72
